target: UniProt Q16531; assay: Surface plasmon resonance (SPR) binding assay to immobilized His-DDB1; conditions: SPR, steady state affinity model, 25° C.; read-out: Binding (DDB1 binder activities, Kd)
Sequence (Q16531 whole entry): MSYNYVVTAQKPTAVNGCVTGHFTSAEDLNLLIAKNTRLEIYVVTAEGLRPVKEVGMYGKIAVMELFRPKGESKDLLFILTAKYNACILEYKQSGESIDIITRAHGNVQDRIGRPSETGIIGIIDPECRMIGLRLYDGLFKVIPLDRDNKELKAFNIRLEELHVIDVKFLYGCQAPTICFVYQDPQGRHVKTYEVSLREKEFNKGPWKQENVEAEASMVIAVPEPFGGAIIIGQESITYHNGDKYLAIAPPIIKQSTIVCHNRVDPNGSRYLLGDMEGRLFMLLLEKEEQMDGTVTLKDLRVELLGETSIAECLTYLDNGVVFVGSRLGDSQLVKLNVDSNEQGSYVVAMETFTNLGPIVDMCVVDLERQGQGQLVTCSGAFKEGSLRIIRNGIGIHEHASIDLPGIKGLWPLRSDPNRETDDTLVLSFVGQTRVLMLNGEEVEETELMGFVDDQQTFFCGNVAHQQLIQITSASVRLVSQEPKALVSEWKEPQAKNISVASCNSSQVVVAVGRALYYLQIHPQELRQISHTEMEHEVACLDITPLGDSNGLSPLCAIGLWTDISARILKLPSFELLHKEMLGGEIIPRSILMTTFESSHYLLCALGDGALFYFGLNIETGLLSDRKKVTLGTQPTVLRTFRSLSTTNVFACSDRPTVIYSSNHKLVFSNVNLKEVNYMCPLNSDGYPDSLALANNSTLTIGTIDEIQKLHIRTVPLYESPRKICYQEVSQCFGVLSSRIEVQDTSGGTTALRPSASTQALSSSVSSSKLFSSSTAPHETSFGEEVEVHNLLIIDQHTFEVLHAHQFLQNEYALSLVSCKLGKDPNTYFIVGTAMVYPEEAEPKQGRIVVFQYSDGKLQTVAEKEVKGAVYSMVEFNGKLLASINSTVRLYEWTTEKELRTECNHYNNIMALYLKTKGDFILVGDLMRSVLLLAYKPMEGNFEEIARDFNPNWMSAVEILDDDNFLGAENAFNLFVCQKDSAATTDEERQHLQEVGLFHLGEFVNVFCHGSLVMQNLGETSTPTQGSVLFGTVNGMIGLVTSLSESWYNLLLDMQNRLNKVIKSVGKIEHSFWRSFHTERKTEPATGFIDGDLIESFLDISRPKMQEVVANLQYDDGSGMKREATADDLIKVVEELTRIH
pKd: −log10 of the molar value.
measured metric: pKd

Sample answers from the record:
Cc1cccc(C)c1C(=O)Nc1ncc([N+](=O)[O-])s1 [B-157]; < 4.00
Cc1cc(Cl)ccc1C(=O)Nc1ncc([N+](=O)[O-])s1 [B-150]; 4.00 to 4.70
O=C(Nc1ncc([N+](=O)[O-])s1)c1ccccc1C(F)(F)F [B-89]; 4.00 to 4.70
CC(C)c1ccccc1C(=O)Nc1ncc([N+](=O)[O-])s1 [B-84]; > 4.70
CC(=O)Nc1ccccc1C(=O)Nc1ncc(S(C)(=O)=O)s1 [B-47]; < 4.00

q: Item CN(CCc1ccccc1)C1CCCN(C(=O)CCc2nc3ccccc3[nH]2)C1 (centres unmarked) [B-139] with UniProt Q16531 - pKd?
a: > 4.70

q: Please answer likewise for CC(=O)Nc1ccccc1C(=O)Nc1ncc(C)s1 [B-42]
a: 4.00 to 4.70

q: Now the compound CC(=O)Nc1ccccc1C(=O)Nc1ncccn1 [B-56, 2-acetamido-N-(pyrimidin-2-yl)benzamide]
a: < 4.00

q: Also, CCNc1cccc(C)c1C(=O)Nc1ncc([N+](=O)[O-])s1 [B-169] please.
a: 4.00 to 4.70

q: Thanks! And CNC(=O)CCCNC(=O)c1nnn2c1CN(C(=O)OCCCCCC(C)C)CC2 [B-144] ?
a: 4.00 to 4.70

q: And the next one, CCCCNc1ccc(C(=O)Nc2ncc([N+](=O)[O-])s2)c(OCC)c1 [B-160] ?
a: 4.00 to 4.70

q: Again, but for CCCCNc1ccc(C(=O)Nc2ncc(C(F)(F)F)s2)c(-c2ccccc2)c1 [B-118]
a: 4.00 to 4.70

q: Could you do the same for CC(=O)Nc1ccccc1C(=O)Nc1ccc(-c2ccccc2)s1 [B-130] , please?
a: < 4.00

q: Again, but for CCCC(=O)Nc1cccc(OC(C)=O)c1C(=O)Nc1ncc([N+](=O)[O-])s1 [B-23]
a: 4.00 to 4.70

q: How about this compound: CCCNC(=O)c1ccc(OC(C)=O)c(C(=O)Nc2ncc([N+](=O)[O-])s2)c1 [B-13]
a: 4.00 to 4.70

----------
biological target: UniProt:Q16531; test: Surface plasmon resonance (SPR) binding assay to immobilized His-DDB1; details: SPR, steady state affinity model, 25° C.; read-out: Binding (DDB1 binder activities, Kd)
pKd: −log10 of the molar value.
Catalogue of compounds with associated pKd

The following compounds have reported results that may help.
Cc1cc(N(C)C)ccc1C(=O)Nc1ncc([N+](=O)[O-])s1 [B-167]; < 4.00
CN(C(=O)c1ccccc1CCC(F)(F)F)c1ncc([N+](=O)[O-])s1 [B-105]; < 4.00

q: Lookup: pKd / UniProt:Q16531 / CCCCNc1ccc(NC(C)=O)c(C(=O)Nc2ncc([N+](=O)[O-])s2)c1 [B-149]
a: 4.00 to 4.70
